Below, each entry is listed with its recorded IC50.
- protocol.details: Cytotoxicity against human HL60 cells assessed as cell growth inhibition after 72 hrs by MTT assay
- Type: functional, cell-based
- conditions: HL-60, 72 h

# compound, IC50
measured = [
    ("COc1cc([C@@H]2c3cc4c(cc3[C@@H](O[C@@H]3O[C@@H]5CO[C@@H](C)O[C@H]5[C@H](O)[C@H]3O)[C@H]3COC(=O)[C@H]23)OCO4)cc(OC)c1O [ETOPOSIDE]", "0.5 µM"),
    ("C[C@@H]1C(=O)/C=C\\C(C)(C)[C@@H]2C=C(CC[C@@H]1O)C(=O)O2", "> 10 µM"),
    ("C/C1=C/CC[C@]23O[C@H]2[C@H](OC3=O)C(C)(C)/C=C/C1=O", "> 10 µM"),
    ("CC1(C)/C=C\\C(=O)[C@@]2(C)O[C@H]2CCC2=C[C@@H]1OC2=O", "5.4 µM"),
    ("CCO[C@H]1CCC2=C[C@H](OC2=O)C(C)(C)/C=C\\C(=O)[C@H]1C", "> 10 µM"),
    ("CC1(C)C[C@@H]2C(=O)[C@](C)(O)/C=C\\C[C@@H]3C(=O)O[C@H]1[C@@H]32", "> 10 µM"),
]
